attributeMeasured: melting point

Data point: Cn1nc(-c2ccc(F)cc2)c(-c2ccncc2)c1CCCc1ccccc1 ; melting point = 83 to 87 °C

The compound listed as NS(=O)(=O)c1ccc(-n2nc(C(F)(F)F)cc2-c2ccc(-c3ccco3)c(Cl)c2)cc1F has a reported melting point of 172 °C

Query C=Cc1cc(OP(=O)(O)O)cc2nc(-c3ccc(OP(=O)(O)O)c(F)c3)oc12 yields melting point of > 180 °C

For record CCOC(=O)Cc1c(C)n(Cc2cccc(OC)c2)c2ccc(OCc3csc(-c4ccccc4)n3)cc12 the listed melting point is 85 to 86 °C

Looking up COc1cc(Nc2c(C#N)cnc3cc(-c4ccc(CN5CCOCC5)cc4)sc23)c(Cl)cc1Cl , I see its melting point listed as 244 to 245 °C

Input Oc1ccc2c(-c3ccccc3F)noc2c1I . Output melting point: 212 to 214 °C

# melting point (compound: COc1cc2ccn3c(=O)c(C(=O)O)cnc3c2cc1OC ) is 298 to 301 °C

The value of melting point measured for the compound N#Cc1ccc(CBr)c(Cl)c1 turned out to be 83 to 85 °C

melting point for O=C(NN=Cc1ccncc1)OC(c1ccccc1)c1ccccc1 is 159 to 160 °C

// sample N=C(N)c1ccc2cc(OC(=O)CCCCCN)ccc2c1 , its melting point was 122 to 123 °C

COc1ccc(C(=O)COC(C)=O)cc1OC yielded melting point of 82 to 84 °C

CCOC(=O)c1c(CN2CCSCC2)nc2cc(OC)c(OC)cc2c1-c1ccc(OC)c(OC)c1 has a reported melting point of 148 to 149 °C

Per the records, this compound ( O=C(Nc1nnc(C2CC2)o1)C1c2ccccc2Oc2ccccc21 ) has melting point equal to 246 to 248 °C

melting point for O=C(O)Cc1cccc(Oc2ccccc2)c1O is 132 to 135 °C

For C1=CC2(c3ccccc3CP(Cc3ccccc3)Cc3ccccc3)OC2(CP(Cc2ccccc2)Cc2ccccc2)C2OC12 (stereo not drawn) the compound record lists melting point as 203 to 205 °C

Form field melting point, entry COC(=O)CC1COc2cc(OCc3csc(-c4ccccc4)n3)ccc21 (stereo not drawn) : 116 to 117 °C

The recorded melting point for CCOC(=O)N1CCc2nc3ccccc3c(Oc3ccccc3)c2CC1 is 150 °C

response.value for CC1CS(=O)C(c2cccs2)=NO1 (stereo not drawn) (field: melting point) = 114 to 115 °C

response.value for CCS(=O)(=O)c1cnc(Cl)c(Cl)c1 (field: melting point) = 141 to 142 °C

Noted for CCC1=Nc2cccc(Cl)c2C(=O)C1 : its melting point reads 236 to 239 °C

// CC(C)Oc1c(-c2ccc(S(N)(=O)=O)cc2)cnn(CC(F)(F)F)c1=O : melting point value = 158 to 160 °C

# melting point (compound: COc1ccc2ccc(N3C(=O)c4ccccc4C3OC(=O)CCCC(C)C)nc2n1 (stereo not drawn) ) is 105 °C

So for CN(C)C(=O)CNc1ccncc1[N+](=O)[O-] , the logged melting point turned out to be 142 to 143 °C

Noted for O=C(O)CCCCCCc1ncsc1C(=O)O : its melting point reads 151 to 153 °C

Item: Cc1ccc(CC(C(N)=O)c2ccccc2)cc1 (stereo not drawn) | melting point: 150 to 151 °C

Query COc1ccc2c(c1)CNCCO2 yields melting point of 96 to 97 °C

The compound listed as Cc1cc(CBr)nc2ccccc12 shows melting point equal to 92 °C

Value of melting point reported for the compound Nc1nc2c(s1)CCN(C/C=C\c1cccnc1)CC2 is 125 to 126 °C

Summary for this compound, COc1ccc2cc(-c3ccc(S(C)=O)cc3)ccc2n1 (stereo not drawn) : melting point is 164 to 166 °C

Given item CC(C(=O)O)c1ccc2c(c1)C(=O)Cc1ccccc1O2 (stereo not drawn) , the value recorded as its melting point is 152 to 154 °C

// melting point lookup, compound = Cc1[nH]c(C=O)c2c1-c1ccc(Cl)cc1C(c1ccccc1Cl)=NC2 , result: 274 to 276 °C

The recorded melting point for entry C=CC(O)c1c(C(C)C)nc(C(C)C)c(CCCCC)c1-c1ccc(F)cc1 (stereo not drawn) equals 83 to 85 °C

Looking up N#CN=C(Nc1cccnc1)NC1CCCC1 , I see its melting point listed as 155 to 156 °C

// recorded melting point for CCOC(=O)C(O)=CC=C(SC)C(=O)c1ccc(O)c(O)c1 : 156 °C

melting point in this record for CCCCOC1C=CC(=O)N1S(=O)(=O)c1cccs1 (stereo not drawn) : 56 to 57 °C

Lab note: measured melting point of O=c1[nH]c2cc(Cl)c([N+](=O)[O-])c(Cl)c2[nH]c1=O was 320 to 325 °C

Just so you know, measured melting point for O=C1CCCC(Sc2ccccc2)C(c2ccccc2)O1 (stereo not drawn) came out at 166 °C

Short answer for O=C(CCc1ccc(NC2=NCCN2)cc1)c1ccc(F)cc1 : melting point was 190 to 191 °C

Record O=C(O)C(Cc1ccc2ccccc2c1)NC(=O)C(CS)C(F)(F)F (stereo not drawn) . Reported melting point: 165 to 167 °C

Please fill in: melting point reported for COC(=O)c1cccc(CC#N)c1[N+](=O)[O-] = 77 to 80 °C

The recorded melting point for CC1(C)Oc2ccc(C#N)cc2[C@@H](n2ncccc2=O)[C@@H]1O (relative stereo) is 211 to 215 °C

Input O=C1CCC(c2ccccc2)(c2ccccc2)C2CN(C(Cc3ccccc3)=NCc3ccccc3Cl)CC12 (stereo not drawn) . Output melting point: 192 °C

The recorded melting point for Cc1nc(C)c(Cl)c(NCc2nccc(N(C)CCN3CCc4ccccc4C3)c2Cl)n1 is 81 to 93 °C
